Target: ATP-dependent molecular chaperone HSP82 (Candida albicans (strain WO-1) (Yeast), UniProt C4YTQ8)
Sequence (C4YTQ8 whole entry): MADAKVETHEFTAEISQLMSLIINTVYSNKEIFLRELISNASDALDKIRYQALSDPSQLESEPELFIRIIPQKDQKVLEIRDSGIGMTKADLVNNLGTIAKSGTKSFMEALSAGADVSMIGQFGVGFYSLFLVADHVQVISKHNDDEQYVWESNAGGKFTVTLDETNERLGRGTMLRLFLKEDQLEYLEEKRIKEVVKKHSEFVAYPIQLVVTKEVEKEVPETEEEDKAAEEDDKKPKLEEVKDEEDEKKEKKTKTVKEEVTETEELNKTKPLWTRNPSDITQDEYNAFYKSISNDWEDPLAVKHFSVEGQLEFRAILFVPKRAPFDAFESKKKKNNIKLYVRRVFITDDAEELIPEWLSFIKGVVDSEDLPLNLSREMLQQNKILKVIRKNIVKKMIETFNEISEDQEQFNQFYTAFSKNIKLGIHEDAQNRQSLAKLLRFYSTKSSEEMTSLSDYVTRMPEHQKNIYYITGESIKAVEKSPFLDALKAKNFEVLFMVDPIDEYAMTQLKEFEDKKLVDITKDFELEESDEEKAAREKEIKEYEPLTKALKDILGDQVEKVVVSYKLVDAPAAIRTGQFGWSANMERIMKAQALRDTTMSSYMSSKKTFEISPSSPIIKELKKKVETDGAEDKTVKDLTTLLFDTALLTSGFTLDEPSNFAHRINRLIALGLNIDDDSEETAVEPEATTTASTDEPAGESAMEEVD
Assay: steroid-induced GRE reporter decrease in yeast – S. cerevisiae, luminescence, Hsp90 inhibitor project, dose response (AID 2400);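 further: beta-galactosidase luminescence from glucocorticoid response element reporter as proxy for Hsp90 function; inhibitor potency where signal loss means Hsp90 inhibition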
Format: functional, cell-based
Calls of active or inactive are those of the source.
Classes used: yes (1) = active, no (0) = inactive

C(C#CCCCCCCCCC[n+]1ccccc1)#CCCCCCCCCC[n+]1ccccc1 | no (0)
CCCCC(=O)NC(=S)Nc1cccc(NC(=O)c2ccco2)c1 | no (0)
COc1cccc(/C=N/NC(=O)c2c(C)nc3ccc(Br)cn23)c1O | yes (1)
C=CCNC(S)=Nc1sc2c(c1C(=O)OCC)CC(C)(CC)OC2 (stereo not given) | yes (1)
COc1ccc(C2=NN(c3nc4ccccc4s3)C(=O)C2)cc1 | yes (1)

* * *

Target: Cytochrome P450 3A4 (Homo sapiens, UniProt P08684);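 further: confirmatory qHTS run detecting inhibitors and substrates of CYP3A4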
Sequence (P08684 whole entry): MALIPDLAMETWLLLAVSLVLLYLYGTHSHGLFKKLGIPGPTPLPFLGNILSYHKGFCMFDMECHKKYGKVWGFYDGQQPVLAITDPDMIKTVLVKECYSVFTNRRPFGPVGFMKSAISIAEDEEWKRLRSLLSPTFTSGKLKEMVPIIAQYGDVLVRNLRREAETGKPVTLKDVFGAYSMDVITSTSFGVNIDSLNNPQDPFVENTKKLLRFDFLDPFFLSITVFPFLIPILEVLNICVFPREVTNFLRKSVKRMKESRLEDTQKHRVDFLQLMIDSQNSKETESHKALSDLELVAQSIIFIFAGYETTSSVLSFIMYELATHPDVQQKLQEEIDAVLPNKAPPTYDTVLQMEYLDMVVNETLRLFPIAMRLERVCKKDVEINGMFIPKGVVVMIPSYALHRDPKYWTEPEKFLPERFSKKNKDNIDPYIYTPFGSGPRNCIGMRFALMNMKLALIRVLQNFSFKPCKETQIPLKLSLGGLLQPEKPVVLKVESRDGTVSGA
Conditions: Potency
observation.type: AC50

CCC(=O)CC(NC(=O)OC)c1ccccc1 (centres undefined) | 6.31 µM (inconclusive)
CNC(=O)[C@@]1(C)C=C[C@@H](Cc2ccccc2)N1C(=O)OC | 3.16 µM (inconclusive)
Nc1ccc2ccccc2c1 | 12.6 µM (inconclusive)
CCOC(=O)C1(O)Oc2cc(OC)cc(OC)c2C(=O)C1c1ccccc1 (centres undefined) | 20 µM (inconclusive)

* * *

Target: Rac GTPase-activating protein 1 (Homo sapiens, UniProt Q9H0H5)
Sequence (Q9H0H5 whole entry): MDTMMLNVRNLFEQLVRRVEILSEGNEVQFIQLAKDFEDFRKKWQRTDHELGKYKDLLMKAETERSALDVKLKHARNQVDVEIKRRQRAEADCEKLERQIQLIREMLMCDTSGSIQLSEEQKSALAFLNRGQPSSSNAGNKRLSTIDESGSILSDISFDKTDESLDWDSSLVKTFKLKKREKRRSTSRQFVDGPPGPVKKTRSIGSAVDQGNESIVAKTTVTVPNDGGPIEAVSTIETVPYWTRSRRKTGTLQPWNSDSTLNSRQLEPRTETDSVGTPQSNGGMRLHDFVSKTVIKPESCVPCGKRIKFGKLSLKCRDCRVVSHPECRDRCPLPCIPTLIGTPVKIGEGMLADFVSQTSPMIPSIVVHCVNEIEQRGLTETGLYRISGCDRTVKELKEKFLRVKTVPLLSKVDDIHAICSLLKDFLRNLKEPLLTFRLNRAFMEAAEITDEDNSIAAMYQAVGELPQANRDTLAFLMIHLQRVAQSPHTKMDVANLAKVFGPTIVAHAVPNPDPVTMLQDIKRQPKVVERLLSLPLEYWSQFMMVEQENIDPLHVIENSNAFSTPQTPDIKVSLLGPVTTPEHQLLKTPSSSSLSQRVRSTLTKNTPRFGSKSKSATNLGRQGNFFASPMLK
Assay: blockers of MgcRacGAP-driven Rac1 GTP hydrolysis – biochemical, ADP Hunter fluorescence, primary and confirmatory, confirmation (AID 624330)
Format: functional
The source made the active and inactive calls.
observation.type: IC50

COC(=O)c1[nH]c2cc(OC)c(OC)cc2c1NC(=O)Oc1ccccc1 | 28.8 µM (active)
Nc1ccc2[nH]c(-c3ccc(Cl)cc3)nc2c1 | 37.8 µM (active)
COc1ccc(CN(C)CCc2ccccn2)c(OC)c1OC | 134 µM (active)
CC(=O)Oc1ccc2c(=O)c(Oc3ccccc3)coc2c1OC(C)=O | 108 µM (active)
Cc1cc(C)c(OCCCCN(C)Cc2ccccc2)c(C)c1 | 120 µM (active)
COc1cc(CNc2ccc3[nH]c(O)nc3c2)ccc1OCc1cccc(C)c1 | 236 µM (active)
CC1=NN(c2ccccc2)C(=O)/C1=C/C=C/C=C/N(C)C | 68.1 µM (active)
N=C(N)N/N=C/c1ccc(N(c2ccccc2)c2ccccc2)cc1 | 60.7 µM (active)
COc1cc(/C=N/n2c(S)nnc2-c2cc(C)[nH]n2)cc(OC)c1O | 69.3 µM (active)
COc1ccc(/C=N/N2CCN(C)CC2)cc1O | 39.2 µM (active)
O=c1c(-c2cccc(Cl)c2)c[nH]n1-c1ccccc1 | 59.6 µM (active)
COCC(C)NCc1ccc(OC)c(Br)c1 (stereo not given) | 167 µM (active)
COc1cc(/C=C/C(=O)c2ccc3c(c2)OCO3)cc(Cl)c1O | 93.6 µM (active)
Nc1ccc2c(c1)Nc1ccccc1CC2 | 27.2 µM (active)
COc1cc(/C=N/n2cnnc2)ccc1OC(=O)c1cccnc1 | 32 µM (active)

* * *

Test: fluconazole-exposed Candida albicans growth modulators – fluorescence, retest, confirmation (AID 2467)
Assay type: functional, cell-based
Calls of active or inactive are those of the source.
We begin with a simple list: items and their reported EC50.
observation.type: EC50

CCCn1c(N)c(C(=O)COC(=O)c2c(C)noc2C)c(=O)n(C)c1=O | > 38 µM (not active)
COc1cccc(/C=N/NC(=O)c2c(C)nc3ccc(Br)cn23)c1O | 0.483 µM (active)
COc1ccc(C2=NN(c3nc4ccccc4s3)C(=O)C2)cc1 | > 38 µM (not active)
NCC(c1ccc(Cl)cc1Cl)c1c[nH]c2ccccc12 (centres undefined) | > 38 µM (not active)

* * *

Reported IC50 is given for each of the following compounds.
Biological target: Eukaryotic translation initiation factor 4E (Mus musculus, UniProt P63073)
Sequence (P63073 whole entry): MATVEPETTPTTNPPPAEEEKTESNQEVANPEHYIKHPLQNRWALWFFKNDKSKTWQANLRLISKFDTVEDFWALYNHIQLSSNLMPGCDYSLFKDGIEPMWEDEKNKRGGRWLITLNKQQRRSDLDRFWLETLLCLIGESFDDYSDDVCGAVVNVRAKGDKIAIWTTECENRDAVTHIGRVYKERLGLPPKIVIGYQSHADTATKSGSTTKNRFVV
Experiment: blockers of eIF4G binding by eIF4E – biochemical, TR-FRET, dose response (AID 855);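 further: potency for disrupting eIF4E binding to eIF4GI seen as loss of FRET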
Assay type: functional
Active and inactive are the calls of the source.
observation.type: IC50

O=c1c2ccccc2sn1-c1cc(S(=O)(=O)N2CCOCC2)ccc1N1CCOCC1 | 5.36 µM (active)
CC(NC(=O)c1ccc(Cn2cc([N+](=O)[O-])cn2)o1)c1ccccc1 (stereo not drawn) | > 64 µM (inactive)
Brc1cccc(C2CC(c3ccccc3)n3nnnc3N2)c1 (stereo not drawn) | > 64 µM (inactive)
O=c1[nH]ncc(N2CCCC2)c1Cl | 50 µM (inactive)
OC1=C2C(=Nc3nc(S)nc(O)c3C2c2ccc(Br)cc2)CCC1 (stereo not drawn) | > 64 µM (inactive)
CC(=O)OC1=C(C#N)Cn2ccc3cccc1c32 | > 64 µM (inactive)
COc1cc(/C=C2\SC(=O)N(Cc3ccc(Cl)cc3)C2=O)cc([N+](=O)[O-])c1O | 36.7 µM (inactive)
Cc1ccc([N+](=O)[O-])cc1-c1ccc2cccc(C)c2n1 | > 64 µM (inactive)

* * *

Molecular target: Cytochrome P450 1A2 (Homo sapiens, UniProt P05177);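 further: PubChem cytochrome P450 panel assay, CYP1A2 panel member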
Sequence (P05177 whole entry): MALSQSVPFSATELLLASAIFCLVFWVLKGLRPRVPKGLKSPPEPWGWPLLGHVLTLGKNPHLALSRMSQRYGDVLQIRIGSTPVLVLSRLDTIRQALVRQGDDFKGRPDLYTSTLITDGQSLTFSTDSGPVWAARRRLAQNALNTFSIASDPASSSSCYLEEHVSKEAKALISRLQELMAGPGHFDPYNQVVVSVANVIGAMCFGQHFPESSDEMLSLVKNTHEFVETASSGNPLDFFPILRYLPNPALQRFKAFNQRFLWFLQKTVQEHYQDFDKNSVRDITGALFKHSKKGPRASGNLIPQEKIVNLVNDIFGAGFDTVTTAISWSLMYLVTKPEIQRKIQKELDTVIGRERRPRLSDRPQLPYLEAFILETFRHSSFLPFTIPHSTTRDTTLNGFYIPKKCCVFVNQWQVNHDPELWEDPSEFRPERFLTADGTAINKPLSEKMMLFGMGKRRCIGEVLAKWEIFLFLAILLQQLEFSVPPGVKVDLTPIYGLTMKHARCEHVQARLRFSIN
observation.type: AC50

COc1ccc(C(OCCN2CCC[C@@H](C(=O)O)C2)(c2ccc(OC)cc2)c2ccc(OC)cc2)cc1 | 31.6 µM (inconclusive)
CN1CCN(c2ncc3nc(-c4cn(C)c5ccccc45)c(=O)n(C)c3n2)CC1 | 31.6 µM (inconclusive)
O=C(c1cccc(F)c1)N1CCC2(CCCN(Cc3ccncc3)C2)CC1 | 15.8 µM (inconclusive)
Cc1cc(NC(=O)c2ccccc2Cl)no1 | 31.6 µM (inconclusive)
NCCSc1nc(-c2ccccc2)c(-c2ccccc2)o1 | 3.16 µM (inconclusive)
CCN1CCN(Cc2ccc(NC(=O)Nc3cccs3)cc2)CC1 | 12.6 µM (inconclusive)
O=C(c1cnccn1)N1CCC2(CC1)CCN(C(c1ccccc1)c1ccccc1)CC2 | 10 µM (inconclusive)
O=C(CSc1nc2ccccc2c(=O)n1NC(=O)c1ccccc1)c1ccc(Cl)cc1 | 6.31 µM (inconclusive)
CCNc1ncc2nc(-c3cn(C)c4ccccc34)c(=O)n(C[C@H]3CCCO3)c2n1 | 10 µM (inconclusive)
O=S(=O)(c1ccccc1)N1CCCC1c1nc2ccccc2s1 (stereo unspecified) | 25.1 µM (inconclusive)
CC(C)(c1ccc(OC[C@@H]2CO2)cc1)c1ccc(OC[C@H]2CO2)cc1 | 31.6 µM (inconclusive)
CCCCCCCCCCCCCCCCCCc1ccc(C(=O)/C=C\C(=O)O)cc1 | 31.6 µM (inconclusive)
CCOC(=O)C(NC(=O)CC)(Nc1sc2c(c1C(=O)OC)CCN(C)C2)C(F)(F)F (stereo unspecified) | 10 µM (inconclusive)
CC(NC(=O)c1ccc(Cn2cc([N+](=O)[O-])cn2)o1)c1ccccc1 (stereo unspecified) | 17.8 µM (inconclusive)
COc1cc(OC)c2c(c1Cl)O[C@@]1(C2=O)[C@H](C)CC(=O)C[C@@H]1OC | 15.8 µM (inconclusive)
CC12CN3CC(C)(CN(C1)C31CCSCC1)C2=O | 12.6 µM (inconclusive)
Cc1cc(C)n(CCCNCC(O)c2ccccc2)n1 (stereo unspecified) | 39.8 µM (inconclusive)
Cc1ccc(Nc2nc(-c3sc(NC(=O)c4ccc([N+](=O)[O-])cc4)nc3C)cs2)cc1 | 2.24 µM (inconclusive)
CC(C)(C)c1ccc(-c2nnc(SCc3ccc(Cl)cc3)n2-c2cccc(C(F)(F)F)c2)cc1 | 3.16 µM (inconclusive)
CCOC(=O)C1=C(C)NC(=S)NC1c1cccc(O)c1 (stereo unspecified) | 39.8 µM (inconclusive)
C1CCC(C(C[C@@H]2CCCCN2)C2CCCCC2)CC1 | 6.31 µM (inconclusive)

* * *

Molecular target: High affinity choline transporter 1 (Homo sapiens, UniProt Q9GZV3)
Sequence (Q9GZV3 whole entry): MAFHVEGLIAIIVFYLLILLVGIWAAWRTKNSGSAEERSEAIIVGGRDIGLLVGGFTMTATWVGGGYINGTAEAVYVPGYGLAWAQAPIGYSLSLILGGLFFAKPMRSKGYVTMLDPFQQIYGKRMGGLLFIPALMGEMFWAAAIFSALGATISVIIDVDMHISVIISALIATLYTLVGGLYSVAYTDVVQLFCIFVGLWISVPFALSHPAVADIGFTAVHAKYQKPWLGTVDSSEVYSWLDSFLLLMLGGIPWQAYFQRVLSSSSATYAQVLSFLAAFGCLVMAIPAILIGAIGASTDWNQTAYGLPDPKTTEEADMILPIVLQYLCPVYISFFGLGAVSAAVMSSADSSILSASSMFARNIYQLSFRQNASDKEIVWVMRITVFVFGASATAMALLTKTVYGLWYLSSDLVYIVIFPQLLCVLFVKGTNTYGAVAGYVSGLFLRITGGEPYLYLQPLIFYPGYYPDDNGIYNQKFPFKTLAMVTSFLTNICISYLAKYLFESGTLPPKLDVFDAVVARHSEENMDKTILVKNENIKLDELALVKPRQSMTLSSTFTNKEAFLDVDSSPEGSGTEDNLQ
Experiment: human choline transporter blockers, potency – cell-based, 5-point CRC, membrane potential dye, dose response (AID 504840)
Assay type: functional
Activity calls are given as the source filed them.
Each record here notes measured IC50.
observation.type: IC50

CC(C)CN1CCC(Oc2cccc(C(=O)NCCc3ccccc3)c2)CC1 | 10.7 µM (active)
Cc1cc(OCc2cc(C(=O)NCCN3CCCCC3CO)no2)cc(C)c1Cl (stereo not drawn) | 18.2 µM (active)
O=c1[nH]ncc(N2CCCC2)c1Cl | 8.71 µM (active)
